read-out: Vascular cell adhesion molecule 1 (VCAM1), VCAM1 (gene 7412); test: BSK_MyoF_VCAM1: BioMAP Diversity Plus: MyoF Assay for Vascular cell adhesion molecule 1 (VCAM1) Biomarker Activity (AID 2284231); conditions: primary human lung fibroblasts
The source made the active and inactive calls. Rule for the calls: active = hit-call score of the fitted dose curve at least 0.9, where 1 is the maximum; inactive = score below 0.9.
Labels: T (active), F (inactive)

{"columns": ["Compound", "Class Name"],
 "data": [
  ["CCCCNc1ccc(NCCCC)c2c1C(=O)c1ccccc1C2=O", "F"],
  ["CC(C)(c1cc(Br)c(OCCO)c(Br)c1)c1cc(Br)c(OCCO)c(Br)c1", "T"],
  ["CCCCCCCCCCCCCCCC[N+](C)(C)CC", "T"],
  ["CC(C)C(=O)C(C)C", "F"],
  ["c1ccc2c(c1)ccc1cc3c(ccc4ccccc43)cc12", "F"],
  ["CCCCC/C=C\\C/C=C\\CCCCCCCC(=O)OC", "F"],
  ["CC1OC1C1CCC2(C)OC2C1 (configuration not stated)", "F"],
  ["C#CC1(O)CC[C@H]2[C@@H]3CCC4=CCCC[C@@H]4[C@H]3CC[C@@]21C (some centres not stated)", "T"],
  ["C=CC=CC=CCCCCC", "F"],
  ["O=C(Cl)c1cc(C(=O)Cl)cc(C(=O)Cl)c1", "T"],
  ["O=c1c2ccccc2oc2ccccc12", "F"],
  ["O=Nc1ccc(O)cc1", "F"],
  ["COCc1c(C(C)C)nc(C(C)C)c(/C=C/[C@@H](O)C[C@@H](O)CC(=O)O)c1-c1ccc(F)cc1", "T"],
  ["C=CCOc1c(Br)cc(Br)cc1Br", "T"],
  ["COc1ccc2nc(N)sc2c1", "F"],
  ["C=CC(=O)OCC(Br)CBr (configuration not stated)", "T"],
  ["CCCCCCCCc1ccc(Nc2ccc(CCCCCCCC)cc2)cc1", "F"]
]}
